test system: SF-268 CNS; assay: NCI tumour cell line growth inhibition, 48 h
value_kind: GI50

Noted for O=C(Cn1c(=O)c(-c2ccccc2)nc2ccccc21)c1cccnc1 : its GI50 reads > 100000 nM

Noted for COc1cc([C@@H]2c3cc4c(cc3C(Br)[C@H]3COC(=O)[C@H]23)OCO4)cc(OC)c1OC (some centres undefined) : its GI50 reads 399 nM

Noted for CCc1ccc(-c2ccc(=O)n(-c3ccc(S(N)(=O)=O)cc3)n2)cc1 : its GI50 reads 9060 nM

Noted for O=C1c2ccccc2-c2c1c1ccc([N+](=O)[O-])cc1c(=O)n2CCNCCCNCCn1c2c(c3ccc([N+](=O)[O-])cc3c1=O)C(=O)c1ccccc1-2 : its GI50 reads 88.1 nM

====

Exercise: state measured TGI for each of the molecules provided.
tested on: NCI/ADR-RES ovarian; assay: NCI tumour cell line growth inhibition, 48 h
Numbers only; they are read as µM.

The molecule CN(C)/C=C/c1nnnn1-c1ccc(Cl)cc1 , when measured on NCI/ADR-RES ovarian, yielded TGI of 36.3

The molecule OCCCCC#Cc1ccccc1C#Cc1ccccc1F , when measured on NCI/ADR-RES ovarian, yielded TGI of 46.7

The molecule CC1=C(SCc2ccccc2)C(=O)c2ccccc2C1=O , when measured on NCI/ADR-RES ovarian, yielded TGI of 61.1

The molecule Cc1ccccc1S(=O)(=O)N1[C@H](c2ccc(Cl)cc2)C(C(=O)N[C@@H](Cc2ccccc2)C(N)=O)=C[C@@H]1C(C)(C)C , when measured on NCI/ADR-RES ovarian, yielded TGI of 21

The molecule C=C1C(=O)O[C@H]2C/C(C)=C/CC/C(C)=C/CC[C@@](C)(O)[C@@H](I)C[C@@H]12 , when measured on NCI/ADR-RES ovarian, yielded TGI of 24.7

The molecule NC(N)=N/N=C/c1c(-c2cccs2)nc2sccn12 , when measured on NCI/ADR-RES ovarian, yielded TGI of 27.6

The molecule NCCNCCCCCCNC(=O)c1cccc2cc3ccccc3nc12 , when measured on NCI/ADR-RES ovarian, yielded TGI of 38.4

====

tested on: DU-145 prostate; experiment: NCI tumour cell line growth inhibition, 48 h
Exercise: state measured TGI for each of the compounds provided.

Noted for CNC(=O)c1c(NC(=O)c2cccc(C(F)(F)F)c2)sc2c1CCC(=O)C2 : its TGI reads > 100 µM

Noted for CCOCC(=O)N[C@H]1CCc2cc(OC)c(OC)c(OC)c2-c2ccc(SC)c(=O)cc21 : its TGI reads 0.0582 µM

Noted for OCc1cccc(-c2ccc3ncc(-c4nc(NC5CC5)ncc4F)n3c2)c1 : its TGI reads 1.83 µM

Noted for NS(=O)(=O)c1ccc(Nc2c3ccccc3nc3c(C(=O)NCCCN(CCO)CCO)cccc23)cc1 : its TGI reads > 100 µM

Noted for CCCCCCOc1ccc(/C=N/NC(N)=S)cc1 : its TGI reads > 100 µM

Noted for Cc1cc(=O)c2cc(N=Cc3ccc([N+](=O)[O-])o3)ccc2o1 : its TGI reads > 100 µM

Noted for CCCC(CC)c1c(O)c(O)c(C(CC)CCC)c(C(CC)CCC)c1C(CC)CCC (centres undefined) : its TGI reads > 10 µM

Noted for CC1=C(C(=O)Nc2ccc3[nH]ncc3c2)C(c2ccc(F)cc2)NC(=O)N1 (centres undefined) : its TGI reads > 25 µM

Noted for Nc1ccc(N=Nc2ccccc2)c(N)n1 : its TGI reads 81 µM

Noted for CCc1nn(S(=O)(=O)c2ccc(C)cc2)c2c1CS(=O)(=O)CC2 : its TGI reads > 100 µM

Noted for COC(=O)Nc1nc2ccc(Oc3ccc(NC(=O)Nc4cccc(Br)c4)cc3)cc2[nH]1 : its TGI reads > 14.6 µM

Noted for O=C(CN1CCCCC1)c1ccc2c(c1)Sc1ccccc1O2 : its TGI reads 49.3 µM

Noted for COc1ccc(-c2nsc3c2NC(=O)CC3c2ccc3c(c2)OCO3)cc1 (centres undefined) : its TGI reads 53.1 µM

Noted for O=[N+]([O-])c1cc(O)c(O)cc1-c1cn2ccsc2n1 : its TGI reads > 100 µM

Noted for N/N=C1/C(=N/O)CCc2nonc21 : its TGI reads > 100 µM

Noted for COc1cc2c(c(OC)c1OC)-c1ccc(NNC(=S)N(Cc3cccc(C[N+](Cc4cccc(CNC56CC7CC(CC(C7)C5)C6)c4)(Cc4cccc(CNC56CC7CC(CC(C7)C5)C6)c4)Cc4cccc(CN(C(=S)NNc5ccc6c(cc5=O)[C@@H](NC(C)=O)CCc5cc(OC)c(OC)c(OC)c5-6)C56CC7CC(CC(C7)C5)C6)c4)c3)C34CC5CC(CC(C5)C3)C4)c(=O)cc1[C@@H](NC(C)=O)CC2 (some centres undefined) : its TGI reads 7.1 µM

Noted for COc1ccc(C(O)c2cc3c(N)c(C(=O)Nc4cccc(Cl)c4C)sc3nc2C)cc1 (centres undefined) : its TGI reads 1.85 µM

Noted for CC(=Nc1c2ccccc2nc2ccccc12)N(C)C : its TGI reads > 100 µM

Noted for C=C1C(=O)O[C@H]2C/C(C)=C/CC/C(C)=C/CC[C@@](C)(O)[C@@H](I)C[C@@H]12 : its TGI reads 22.2 µM
